target: Nav1.8 ion channel stably expressed on HEK293 cells (Homo sapiens (Human)); assay: Inhibitory activity against Nav1.8, manual patch clamp; conditions: resting protocol (-80 mV to 10 mV), 1 μM TTX, read-out: IC50 for the inhibition of Nav1.8 channel activity
pIC50: −log10 of the molar value.
pIC50 values for the molecules below.
Measurement Label: pIC50

- COc1c([C@H]2[C@H](C(=O)Nc3ccnc(C(=O)NNC4CC4)c3)O[C@@](C)(C(F)(F)F)[C@H]2C)ccc(F)c1F: 8.55
- COc1c([C@H]2[C@H](C(=O)Nc3ccnc(NC(C)=O)c3)O[C@@](C)(C(F)(F)F)[C@H]2C)ccc(F)c1F: 8.81
- C/N=C(\N)c1cc(NC(=O)[C@@H]2O[C@@](C)(C(F)(F)F)[C@@H](C)[C@H]2c2ccc(F)c(F)c2OC)ccn1: 8.87
- COc1c([C@H]2[C@H](C(=O)Nc3ccnc(C(=N)N)c3)O[C@@](C)(C(F)(F)F)[C@H]2C)ccc(F)c1F: 9.62
- COc1c([C@H]2[C@H](C(=O)Nc3ccnc(C4(N)CC4)c3)O[C@@](C)(C(F)(F)F)[C@H]2C)ccc(F)c1F: 8.66

* * *

experiment: Pharmacokinetic evaluation in SD rats (i.g.); assay type: in vivo; settings: male, Sprague-Dawley (SD), rat, plasma, po, 2.0 mg/kg
Measurement Label: bioavailability

• COc1c([C@H]2[C@H](C(=O)Nc3ccnc(/C(N)=N/O)c3)O[C@@](C)(C(F)(F)F)[C@H]2C)ccc(F)c1F = 24.7%
• CO/N=C(\N)c1cc(NC(=O)[C@@H]2O[C@@](C)(C(F)(F)F)[C@@H](C)[C@H]2c2ccc(F)c(F)c2OC)ccn1 = 51.3%

* * *

experiment: Pharmacokinetic evaluation in C57 mice (i.g./i.v.); format: in vivo; details: both sexes, mouse, plasma, iv, 1.0 mg/kg, read-out: Area under curve AUC0-t
AUC(0-t) values for the compounds below.
Measurement Label: AUC(0-t) (ng·h/mL)

- CO/N=C(\N)c1cc(NC(=O)[C@@H]2O[C@@](C)(C(F)(F)F)[C@@H](C)[C@H]2c2ccc(F)c(F)c2OC)ccn1 [Example 16]: 718
- COc1c([C@H]2[C@H](C(=O)Nc3ccnc(/C(N)=N/O)c3)O[C@@](C)(C(F)(F)F)[C@H]2C)ccc(F)c1F [Example 32]: 947

* * *

assay: Pharmacokinetic evaluation in SD rats (i.g.); assay type: in vivo; details: male, Sprague-Dawley (SD), rat, plasma, po, 2.0 mg/kg, read-out: Clearance rate CL/F
CL/F values for the compounds below.
Measurement Label: CL/F (mL/min/kg)

• COc1c([C@H]2[C@H](C(=O)Nc3ccnc(/C(N)=N/O)c3)O[C@@](C)(C(F)(F)F)[C@H]2C)ccc(F)c1F = 96.9
• CO/N=C(\N)c1cc(NC(=O)[C@@H]2O[C@@](C)(C(F)(F)F)[C@@H](C)[C@H]2c2ccc(F)c(F)c2OC)ccn1 = 101

* * *

assay: Pharmacokinetic evaluation in SD rats (i.g.); format: in vivo; settings: male, Sprague-Dawley (SD), rat, plasma, po, 2.0 mg/kg, read-out: Area under curve AUC0-t
AUC(0-t) values for the molecules below.
Measurement Label: AUC(0-t) (ng·h/mL)

• CO/N=C(\N)c1cc(NC(=O)[C@@H]2O[C@@](C)(C(F)(F)F)[C@@H](C)[C@H]2c2ccc(F)c(F)c2OC)ccn1 [Example 16] = 329
• COc1c([C@H]2[C@H](C(=O)Nc3ccnc(/C(N)=N/O)c3)O[C@@](C)(C(F)(F)F)[C@H]2C)ccc(F)c1F [Example 32] = 321

* * *

half-life values for the molecules below.
experiment: Pharmacokinetic evaluation in C57 mice (i.g./i.v.); type: in vivo; conditions: both sexes, mouse, plasma, po, i.g., 2.0 mg/kg, read-out: Half-life T½ (converted)
Measurement Label: half-life (h)

- CO/N=C(\N)c1cc(NC(=O)[C@@H]2O[C@@](C)(C(F)(F)F)[C@@H](C)[C@H]2c2ccc(F)c(F)c2OC)ccn1 [Example 16]: 7.5
- COc1c([C@H]2[C@H](C(=O)Nc3ccnc(/C(N)=N/O)c3)O[C@@](C)(C(F)(F)F)[C@H]2C)ccc(F)c1F [Example 32]: 3.2

* * *

IC50 values for the compounds below.
target: Nav1.8 ion channel stably expressed on HEK293 cells (Homo sapiens (Human), UniProt Q9Y5Y9); assay: Inhibitory activity against Nav1.8, manual patch clamp; settings: resting protocol (-80 mV to 10 mV), 1 μM TTX, read-out: IC50 for the inhibition of Nav1.8 channel activity
Structures can show the parent of a compound that is named as a salt.
Measurement Label: IC50 (nM)

- COc1c([C@H]2[C@H](C(=O)Nc3ccnc(OC[C@H](O)CO)c3)O[C@@](C)(C(F)(F)F)[C@H]2C)ccc(F)c1F [Example 2]: 2.89
- COc1c([C@H]2[C@H](C(=O)Nc3ccnc(OCC(O)C4(O)CC4)c3)O[C@@](C)(C(F)(F)F)[C@H]2C)ccc(F)c1F (stereo partly shown) [Example 39]: 2.68
- COc1c([C@H]2[C@H](C(=O)Nc3ccnc(C(=O)C(N)=O)c3)O[C@@](C)(C(F)(F)F)[C@H]2C)ccc(F)c1F [Example 26, trifluoroacetate]: 1.09
- CO/N=C(\N)c1cc(NC(=O)[C@@H]2O[C@@](C)(C(F)(F)F)[C@@H](C)[C@H]2c2ccc(F)c(F)c2OC)cc[n+]1[O-] [Example 44]: 0.53
- COc1c([C@H]2[C@H](C(=O)Nc3ccnc(C(=O)N4CCCO4)c3)O[C@@](C)(C(F)(F)F)[C@H]2C)ccc(F)c1F [Example 15]: 1.78
- COc1c([C@H]2[C@H](C(=O)Nc3ccnc(C(=O)NOCC4CC4)c3)O[C@@](C)(C(F)(F)F)[C@H]2C)ccc(F)c1F [Example 18]: 1.89
- COc1c([C@H]2[C@H](C(=O)Nc3ccnc(C(=O)N4CCCN4)c3)O[C@@](C)(C(F)(F)F)[C@H]2C)ccc(F)c1F [Example 14]: 2.12
- CCNNC(=O)c1cc(NC(=O)[C@@H]2O[C@@](C)(C(F)(F)F)[C@@H](C)[C@H]2c2ccc(F)c(F)c2OC)ccn1 [Example 22]: 0.68
- COc1c([C@H]2[C@H](C(=O)Nc3ccnc(C(N)CO)c3)O[C@@](C)(C(F)(F)F)[C@H]2C)ccc(F)c1F (stereo partly shown) [Example 6]: 1.87
- COc1c([C@H]2[C@H](C(=O)Nc3ccnc(C(=O)NN(C)C)c3)O[C@@](C)(C(F)(F)F)[C@H]2C)ccc(F)c1F [Example 24]: 2.12
- COc1c([C@H]2[C@H](C(=O)Nc3cc[n+]([O-])c(/C(N)=N/O)c3)O[C@@](C)(C(F)(F)F)[C@H]2C)ccc(F)c1F [Example 43]: 0.3
- COc1c([C@H]2[C@H](C(=O)Nc3ccnc(NC(N)=O)c3)O[C@@](C)(C(F)(F)F)[C@H]2C)ccc(F)c1F [Example 9]: 3.24
- [2H]C([2H])([2H])O/N=C(\N)c1cc(NC(=O)[C@@H]2O[C@@](C)(C(F)(F)F)[C@@H](C)[C@H]2c2ccc(F)c(F)c2OC)ccn1 [Example 37]: 1.86

* * *

assay: Pharmacokinetic evaluation in SD rats (i.g.); assay type: in vivo; settings: male, Sprague-Dawley (SD), rat, plasma, po, 50 mg/kg, read-out: Plasma concentration Cmax
Measurement Label: Cmax (ng/mL)

- COc1c([C@H]2[C@H](C(=O)Nc3ccnc(C4(N)CC4)c3)O[C@@](C)(C(F)(F)F)[C@H]2C)ccc(F)c1F: 1440

* * *

Test: Pharmacokinetic evaluation in dogs (i.g.)
Type: in vivo
Settings: both sexes, dog, plasma, po, 2 mg/kg, read-out: Clearance rate CL/F
Procedure: Dogs were used as test animals. After intragastric (i.g.) administration of the example compound to dogs, the plasma concentrations of the compound at different time points were determined by the LC/MS/MS method. The pharmacokinetic behavior of the compound of the present disclosure in dogs was studied, and its pharmacokinetic profile was evaluated. The compound of Example 43. […]
Measurement Label: CL/F (mL/min/kg)

- COc1c([C@H]2[C@H](C(=O)Nc3cc[n+]([O-])c(/C(N)=N/O)c3)O[C@@](C)(C(F)(F)F)[C@H]2C)ccc(F)c1F: 0.128

* * *

test: Solubility in FassIF and FessIF solutions; type: physicochemical; settings: thermodynamic from solid, FessIF solution, 37° C., read-out: Solubility in FessIF solution
Measurement Label: solubility at 24 h

* COc1c([C@H]2[C@H](C(=O)Nc3ccnc(C(=N)N)c3)O[C@@](C)(C(F)(F)F)[C@H]2C)ccc(F)c1F [Example 20] | 2410 µM

* * *

test: Pharmacokinetic evaluation in SD rats (i.g.); assay type: in vivo; details: male, Sprague-Dawley (SD), rat, plasma, po, 2.0 mg/kg, read-out: Plasma concentration Cmax
Measurement Label: Cmax (ng/mL)

• CO/N=C(\N)c1cc(NC(=O)[C@@H]2O[C@@](C)(C(F)(F)F)[C@@H](C)[C@H]2c2ccc(F)c(F)c2OC)ccn1 [Example 16] = 120
• COc1c([C@H]2[C@H](C(=O)Nc3ccnc(/C(N)=N/O)c3)O[C@@](C)(C(F)(F)F)[C@H]2C)ccc(F)c1F [Example 32] = 85.7
